Measured Mammalian Cell Specificity Graph (FIG. 4): DHT values are reported for all entries that follow.
Target: androgen receptor (Homo sapiens)
Sequence (P10275 1-920): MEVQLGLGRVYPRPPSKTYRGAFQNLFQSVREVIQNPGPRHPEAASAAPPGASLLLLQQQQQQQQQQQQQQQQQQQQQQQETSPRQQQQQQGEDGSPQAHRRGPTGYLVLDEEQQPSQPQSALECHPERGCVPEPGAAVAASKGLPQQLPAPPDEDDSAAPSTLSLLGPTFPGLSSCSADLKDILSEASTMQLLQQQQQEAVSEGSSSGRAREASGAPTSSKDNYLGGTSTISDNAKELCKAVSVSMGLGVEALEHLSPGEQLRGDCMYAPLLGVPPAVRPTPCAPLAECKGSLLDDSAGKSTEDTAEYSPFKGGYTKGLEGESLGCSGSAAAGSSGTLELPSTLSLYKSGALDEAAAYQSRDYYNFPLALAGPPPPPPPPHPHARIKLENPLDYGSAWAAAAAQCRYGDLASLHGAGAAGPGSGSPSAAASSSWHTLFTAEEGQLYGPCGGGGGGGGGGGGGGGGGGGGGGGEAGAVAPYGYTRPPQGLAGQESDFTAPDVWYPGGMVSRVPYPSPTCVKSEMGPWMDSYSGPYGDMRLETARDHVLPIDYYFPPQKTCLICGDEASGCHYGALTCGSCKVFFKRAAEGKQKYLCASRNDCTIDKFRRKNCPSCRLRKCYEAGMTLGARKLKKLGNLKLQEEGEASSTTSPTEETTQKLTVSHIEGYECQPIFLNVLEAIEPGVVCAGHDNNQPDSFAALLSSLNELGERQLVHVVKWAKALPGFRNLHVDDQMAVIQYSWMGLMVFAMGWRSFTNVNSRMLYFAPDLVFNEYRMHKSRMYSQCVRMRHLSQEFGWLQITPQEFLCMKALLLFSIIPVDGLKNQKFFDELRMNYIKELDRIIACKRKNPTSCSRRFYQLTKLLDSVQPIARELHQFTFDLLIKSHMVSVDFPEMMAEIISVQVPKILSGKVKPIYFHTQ
Type: cell-based
Design: expressed in transfected cells
Settings: ligand DHT
measurement-type: Mammalian Cell Specificity Graph (FIG. 4): DHT

substance | measured-result
EFRSSVFEQMYLCTGGSLDLOPS* [B5G11] | 15.84 Relative Light Units
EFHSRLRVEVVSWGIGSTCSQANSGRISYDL* [B8H3] | 11.6 Relative Light Units
EFQQCMCAEVKSWLGGSLDLOPS* [B8E9] | 19.64 Relative Light Units
HPTHSSRLWELLMEATPTM [D30] | 12.59 Relative Light Units
